# system.under.test: récepteur vasculaire de l'angiotensine II (Oryctolagus cuniculus)
# Construct: réponse contractile induite par l'angiotensine II dans des anneaux isolés d'aorte de lapin
# Sequence (P34976 whole entry): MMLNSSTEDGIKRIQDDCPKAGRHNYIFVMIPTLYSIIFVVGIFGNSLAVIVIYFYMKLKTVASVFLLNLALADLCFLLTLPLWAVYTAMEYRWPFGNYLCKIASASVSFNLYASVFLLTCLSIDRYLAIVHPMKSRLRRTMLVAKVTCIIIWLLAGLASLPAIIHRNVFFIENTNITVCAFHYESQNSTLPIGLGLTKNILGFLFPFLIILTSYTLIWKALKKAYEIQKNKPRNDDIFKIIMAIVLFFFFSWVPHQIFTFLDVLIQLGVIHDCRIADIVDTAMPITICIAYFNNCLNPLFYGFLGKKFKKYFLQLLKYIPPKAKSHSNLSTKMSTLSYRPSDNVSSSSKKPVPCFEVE
# procedure.summary: Antagonism of the angiotensin II-induced contractile response in isolated rabbit aortic rings
# condition.details: contraction by angiotensine II 3.10⁻⁹ M, test product preincubated 15 minutes, 37°C
This section presents compounds with their documented pIC50 values.
Kindly note that pIC50 refers to -log10 of the concentration in mol/L and answer with the value alone.

- molecule: "CCCCc1ncc(CNc2ccccc2C(=O)OCC(=O)N(CCC)CCC)n1Cc1ccc(C(=O)O)cc1"
  observed.value: 7.46
- molecule: "CCCc1ncc(CNc2cc([N+](=O)[O-])ccc2C(=O)O)n1Cc1ccc(C(=O)O)cc1"
  observed.value: 7.34
- molecule: "CCCCc1nc(Cl)c(CNc2ccc(Cl)cc2C(=O)O)n1Cc1ccc(C(=O)O)cc1"
  observed.value: 7.88

Task: What does the record list as pIC50 for CCCCOC(=O)c1ccccc1NCc1cnc(CCCC)n1Cc1ccc(C(=O)O)cc1 ?
Result: 7.82

Task: What does the record list as pIC50 for CCCCc1ncc(CNc2ccccc2C(=O)O)n1Cc1ccc(C(=O)NS(=O)(=O)c2ccccc2N=[N+]=[N-])cc1 ?
Result: 8.70

Task: What does the record list as pIC50 for CCCCc1ncc(CNc2ccccc2C(=O)Oc2ccccc2)n1Cc1ccc(C(=O)O)cc1 ?
Result: 7.27

Task: What does the record list as pIC50 for CCCCNC(=O)c1ccccc1NCc1cnc(CCCC)n1Cc1ccc(C(=O)O)cc1 ?
Result: 7.08

Task: What does the record list as pIC50 for CCCCc1ncc(CNc2ccccc2C(=O)OCC(=O)CC)n1Cc1ccc(C(=O)O)cc1 ?
Result: 8.06

Task: What does the record list as pIC50 for CCCCc1ncc(CNc2ccccc2C(N)=O)n1Cc1ccc(C(=O)O)cc1 ?
Result: 7.15

Where do these numbers come from? They come from patent EP0564356A1.
